These entries and their values trace back to patent US11357779B2.

- protocol summary: Plasma concentration versus time of Compound I and metabolite Compound III in patients dosed QD or BID with Form B of Compound II plus fulvestrant
- Type: in vivo, human
- run parameters: human, plasma, oral, 100 mg, 100 mg BID of Form B, Day 1, 3.0 h, Median; read-out: Compound I Concentration
quantity measured: concentration at 3 h (ng/mL)
Output spec: scalar in ng/mL, unitless text.

IN: Consider the compound CC(C)N1CCN(c2ccc(Nc3ncc4cc5n(c4n3)C3(CCCCC3)CNC5=O)nc2)CC1 [Compound I] . State its measured concentration at 3 h.
OUT: 8.09

====

- protocol summary: Plasma concentration versus time of Compound I and metabolite Compound III in patients dosed QD or BID with Form B of Compound II plus fulvestrant
- Type: in vivo, human
- run parameters: human, plasma, oral, 150 mg, 150 mg BID of Form B, Day 1, 2.0 h, Median; read-out: Compound I Concentration
quantity measured: concentration at 2 h (ng/mL)
Output spec: scalar in ng/mL, unitless text.

IN: Consider the compound CC(C)N1CCN(c2ccc(Nc3ncc4cc5n(c4n3)C3(CCCCC3)CNC5=O)nc2)CC1 . State its measured concentration at 2 h.
OUT: 11.6

====

- protocol summary: Plasma concentration versus time of Compound I and metabolite Compound III in patients dosed QD or BID with Form B of Compound II plus fulvestrant
- Format: in vivo, human
- run parameters: human, plasma, oral, 400 mg, 400 mg QD of Form B, Day 1, 10.0 h, Mean; read-out: Compound I Concentration
- Text: Patients were enrolled into 1 of 2 parallel, independently operating, dose-escalation dosing cohorts with Form B of Compound II administered continuously either once daily (QD) or twice daily (BID) with food with fixed-dose fulvestrant (intramuscularly every 14 days for the first three injections and then every 28 days). Pre- or perimenopausal patients also received goserelin for the duration of study treatment. […]
quantity measured: concentration at 10 h (ng/mL)
Output spec: scalar in ng/mL, unitless text.

IN: Consider the compound CC(C)N1CCN(c2ccc(Nc3ncc4cc5n(c4n3)C3(CCCCC3)CNC5=O)nc2)CC1 [Compound I] . State its measured concentration at 10 h.
OUT: 10.6

====

- protocol summary: Plasma concentration versus time of Compound I and metabolite Compound III in patients dosed QD or BID with Form B of Compound II plus fulvestrant
- Format: in vivo, human
- run parameters: human, plasma, oral, 650 mg, Cohort 5, 650 mg QD of Form B, Day 29, 6.0 h; read-out: Compound I Concentration, Max
quantity measured: concentration at 6 h (ng/mL)
Output spec: scalar in ng/mL, unitless text.

IN: Consider the molecule CC(C)N1CCN(c2ccc(Nc3ncc4cc5n(c4n3)C3(CCCCC3)CNC5=O)nc2)CC1 [Compound I] . State its measured concentration at 6 h.
OUT: 79.3

====

- protocol summary: Noncompartmental pharmacokinetic parameters (Cmax, Tmax, AUC, Racc) in QD and BID cohorts of Form B
- Type: in vivo, human
- run parameters: human, plasma, oral, 200 mg, Compound I; 200 mg BID of Form B; Cohort 7; Day 1; read-out: Cmax (Median)
quantity measured: Cmax (ng/mL)
Output spec: scalar in ng/mL, unitless text.

IN: Consider the compound CC(C)N1CCN(c2ccc(Nc3ncc4cc5n(c4n3)C3(CCCCC3)CNC5=O)nc2)CC1 [Compound I] . State its measured Cmax.
OUT: 17.6
